Biological target: Helicobacter pylori urease (Helicobacter pylori, UniProt P69996)
Sequence (P14916 whole entry): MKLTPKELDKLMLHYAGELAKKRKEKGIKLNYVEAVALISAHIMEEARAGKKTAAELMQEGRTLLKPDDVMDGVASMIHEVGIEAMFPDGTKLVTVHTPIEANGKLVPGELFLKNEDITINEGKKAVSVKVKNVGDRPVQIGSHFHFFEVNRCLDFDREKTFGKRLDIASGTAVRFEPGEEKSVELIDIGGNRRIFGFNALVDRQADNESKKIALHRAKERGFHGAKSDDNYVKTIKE
Sequence (P69996 whole entry): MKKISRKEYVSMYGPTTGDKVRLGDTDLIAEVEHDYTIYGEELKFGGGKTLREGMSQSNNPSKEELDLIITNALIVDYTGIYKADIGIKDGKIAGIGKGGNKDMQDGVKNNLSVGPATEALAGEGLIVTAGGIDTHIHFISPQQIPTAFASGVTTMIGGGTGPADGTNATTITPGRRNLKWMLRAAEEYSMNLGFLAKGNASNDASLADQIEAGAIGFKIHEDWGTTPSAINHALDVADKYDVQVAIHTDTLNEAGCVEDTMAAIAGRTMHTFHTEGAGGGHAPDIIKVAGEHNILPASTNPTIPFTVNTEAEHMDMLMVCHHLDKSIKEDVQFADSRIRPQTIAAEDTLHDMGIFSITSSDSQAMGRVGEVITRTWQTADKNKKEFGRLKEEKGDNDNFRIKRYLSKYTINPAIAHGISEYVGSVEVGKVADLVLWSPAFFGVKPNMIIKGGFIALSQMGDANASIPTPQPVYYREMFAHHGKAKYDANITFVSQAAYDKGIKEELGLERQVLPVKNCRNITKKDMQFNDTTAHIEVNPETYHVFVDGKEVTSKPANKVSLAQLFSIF
Measured Parameter: pIC50
Numbers only, as −log10 of the molar value.

Exam item: Using known records, supply pIC50 for `O=c1[nH]sc2ccccc12`
Marked response: 4.26

----------
Biological target: jack bean urease (Canavalia ensiformis, UniProt P07374)
Sequence (P07374 whole entry, looked up): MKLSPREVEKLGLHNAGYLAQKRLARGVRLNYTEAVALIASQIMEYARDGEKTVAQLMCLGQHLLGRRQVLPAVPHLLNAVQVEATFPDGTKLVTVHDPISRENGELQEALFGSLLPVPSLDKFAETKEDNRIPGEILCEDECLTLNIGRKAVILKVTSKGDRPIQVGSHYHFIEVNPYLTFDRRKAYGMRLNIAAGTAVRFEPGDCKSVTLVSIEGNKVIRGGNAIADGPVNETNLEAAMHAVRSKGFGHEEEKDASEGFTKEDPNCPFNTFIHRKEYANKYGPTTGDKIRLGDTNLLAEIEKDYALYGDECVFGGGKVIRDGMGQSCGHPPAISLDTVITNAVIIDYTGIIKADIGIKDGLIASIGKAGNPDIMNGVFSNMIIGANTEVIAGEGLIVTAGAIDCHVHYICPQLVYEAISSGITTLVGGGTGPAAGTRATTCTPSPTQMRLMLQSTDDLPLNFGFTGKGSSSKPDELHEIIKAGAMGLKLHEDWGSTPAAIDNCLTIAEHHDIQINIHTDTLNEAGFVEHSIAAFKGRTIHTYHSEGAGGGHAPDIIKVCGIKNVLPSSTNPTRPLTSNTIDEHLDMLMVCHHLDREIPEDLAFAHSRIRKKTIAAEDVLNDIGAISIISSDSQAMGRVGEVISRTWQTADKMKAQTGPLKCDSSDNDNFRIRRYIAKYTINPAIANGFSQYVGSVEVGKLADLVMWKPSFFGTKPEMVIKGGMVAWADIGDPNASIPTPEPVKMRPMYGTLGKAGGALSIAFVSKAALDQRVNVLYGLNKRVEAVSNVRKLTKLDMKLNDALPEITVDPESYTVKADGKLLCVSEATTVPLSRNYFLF
Measured Parameter: IC50 (µM)
One number for each entry, in µM.

Exam item: Consider the compound `O=c1[nH]sc2ccccc12` and give its recorded IC50.
Marked response: 132
